B1: Pistol ribozyme (parent)
chain: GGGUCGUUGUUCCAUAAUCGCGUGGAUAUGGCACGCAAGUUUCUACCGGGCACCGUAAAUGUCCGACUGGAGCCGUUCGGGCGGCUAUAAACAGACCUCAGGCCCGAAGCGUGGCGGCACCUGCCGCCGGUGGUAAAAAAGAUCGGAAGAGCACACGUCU

Variants of: B1
Test: aptazyme ON/OFF ratio, guanine; higher = stronger switching; co-transcriptional cleavage with and without guanine
Please go through the items and note down their aptazyme ON/OFF ratio.

Below, each entry is followed by its recorded aptazyme ON/OFF ratio result.
Which aptazyme ON/OFF ratio value belongs to U7G U8G G9A U10G U11C C12A ?
1.4

And U7C U11G C12A ?
1.18

Another variant: U7C U8C U10A U11C
1.03

Follow-up entry: G9U U10G C13G
1.29

Parameters: items (list). Returns: aptazyme ON/OFF ratio for each item.
1. U7A G9C U11A C12A C13G
2. U8C U11G C12G C13A
3. U7C U8G G9A U11C C12G C13U
4. U7A C12A C13G
5. U7G U8G U10G U11A C13A
6. U8A U10G C12A C13U

1. 1.05
2. 1.13
3. 1.1
4. 1.2
5. 1.21
6. 1.23

Quick one: give me aptazyme ON/OFF ratio for each item below, same order please.
1. U7A U8A G9U U10G U11C C13G
2. U7G G9U U10G U11C C12A C13U
3. U7G U8G G9U U10A U11G C12A C13U
4. U7A U8C G9U C12U C13A
5. U7C U8G G9U U10C U11G C12U C13A

1.09
1.33
1.11
1.22
1.24

Batch request: aptazyme ON/OFF ratio for each of the following variants.
1. U8A G9C U10A U11G C12G
2. U8G G9U U10A U11C C12U C13G
3. U7G U11C C13A
4. U7A U8G G9C U10A U11C C12G C13U
5. U7A U8C G9C U10A U11C C12A C13A
6. U7C U8G G9C U10C C12G C13U
7. U7C U8C G9U U10C U11A
8. U7A U10G C13G

1: 1.18; 2: 1.05; 3: 1.03; 4: 1.26; 5: 1.15; 6: 1.1; 7: 2.44; 8: 1.23

List the reported aptazyme ON/OFF ratio of each variant below.
1. U7G U8C G9U U10G U11C C12U
2. U8G G9U U11A C12U C13U
3. U7C G9A U11G
4. U8G G9A U10A U11C C12U
5. U7C U8G G9U C12U
6. U7A U8A U10C U11A C12U C13A
7. U7A U8G G9A U10G C12G C13A

1.26
1.35
1.37
1.04
1.97
1.16
1.5

Values were extracted from the RNAGym collection of RNA variant scans (doi:10.1021/acssynbio.7b00057).
